Test system: Mycobacterium tuberculosis
Assay: Antibacterial activity against INH-resistant Mycobacterium tuberculosis
Type: functional
Reported MIC values are given for each entry in this list.
Enter your answer as a number in µM; do not include the unit.

Some compounds with known MIC results, for comparison:
smiles | MIC [µM]
C/C(=N/NC(=O)c1ccncc1)c1ccc(N/C(S)=N/c2ccc(Br)cc2)cc1 | 1.66
C/C(=N/NC(=O)c1ccncc1)c1ccc(N/C(S)=N/c2ccc(C)cc2)cc1 | 3.86
C/C(=N/NC(=O)c1ccncc1)c1ccc(N/C(S)=N/c2ccccc2)cc1 | 4
COc1ccc(N/C(S)=N\c2ccc(/C(C)=N\NC(=O)c3ccncc3)cc2)cc1 | 1.85
NNC(=O)c1ccncc1 | 90.9

Which MIC reading was recorded for the compound CCOc1ccc(N/C(S)=N\c2ccc(/C(C)=N\NC(=O)c3ccncc3)cc2)cc1 ? 1.79

Next up: C/C(=N/NC(=O)c1ccncc1)c1ccc(N/C(S)=N/c2ccc(F)cc2)cc1 0.49
